Data credit: patent US20250250357A1

system: T1, human MSLN-FL-his protein (human, UniProt Q13421 296-580)
T1 construct: also called human MSLN full-length protein; hMSLN-FL-his; not shown: His tag
T1 sequence (Q13421 other isoform, or with tags, fused parts or gaps): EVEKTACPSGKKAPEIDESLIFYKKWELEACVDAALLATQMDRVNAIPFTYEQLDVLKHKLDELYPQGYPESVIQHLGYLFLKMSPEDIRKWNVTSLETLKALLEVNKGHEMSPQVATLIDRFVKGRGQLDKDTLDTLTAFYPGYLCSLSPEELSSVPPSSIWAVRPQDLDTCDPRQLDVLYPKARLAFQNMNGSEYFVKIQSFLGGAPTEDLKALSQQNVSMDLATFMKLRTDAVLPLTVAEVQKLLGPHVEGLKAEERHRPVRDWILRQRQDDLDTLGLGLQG
test-description: ELISA, coated MSLN full-length;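 further: binding of chimeric antibodies to plate-bound antigen, read by TMB colour after acid stop, antibody incubated 2 h at 37 °C, negative control antibody run alongside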
measured-property: OD450 at 0.0001 nM (OD450)
Numbers only, in OD450.

binder	OD450 at 0.0001 nM, OD450
S009-F2.21.4 (antibody, human IgG1, kappa, V domains shown, Human-murine chimeric antibody, human IgG1/kappa constant regions) VH: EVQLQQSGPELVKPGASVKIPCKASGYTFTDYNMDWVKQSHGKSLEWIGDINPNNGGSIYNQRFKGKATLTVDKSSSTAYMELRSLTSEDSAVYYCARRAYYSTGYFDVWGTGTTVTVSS VL: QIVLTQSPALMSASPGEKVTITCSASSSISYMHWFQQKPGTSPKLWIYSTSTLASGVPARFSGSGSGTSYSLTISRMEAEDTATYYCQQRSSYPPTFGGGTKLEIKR	0.05
S009-F2.47.1 (antibody, human IgG1, kappa, V domains shown, Human-murine chimeric antibody, human IgG1/kappa constant regions) VH: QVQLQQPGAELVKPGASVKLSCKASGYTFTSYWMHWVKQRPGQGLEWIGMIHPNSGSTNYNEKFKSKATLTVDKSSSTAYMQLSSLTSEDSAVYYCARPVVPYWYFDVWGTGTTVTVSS VL: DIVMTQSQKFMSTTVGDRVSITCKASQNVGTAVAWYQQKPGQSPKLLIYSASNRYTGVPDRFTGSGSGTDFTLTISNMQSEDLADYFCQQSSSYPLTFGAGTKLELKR	0.06
S009-F2.38.12 (antibody, human IgG1, kappa, V domains shown, Human-murine chimeric antibody, human IgG1/kappa constant regions) VH: QVQLQQPGTELVKPGASVKLSCKASGYTFTSYWMHWVKQRPGQGLEWIGNINPSNGGTNYNEKIKNKATLTVDKSSSTAYMQLSSLTSEDSAVYYCARWNYYGNYPFDYWGQGTTLTVSS VL: DIVMTQSQKFMSTTVGDRVSITCKASQNVGTAVAWYQQKPGQSPKLLIYSASNRYTGVPDRFTGSGSGTDFTLTISNMQSEDLADYFCQQYSSYPLTFGAGTKLELKR	0.06

Challenge: Give the reported OD450 at 0.0001 nM for this binder. S009-F2.39.3 (antibody, human IgG1, kappa, V domains shown, Human-murine chimeric antibody, human IgG1/kappa constant regions) VH: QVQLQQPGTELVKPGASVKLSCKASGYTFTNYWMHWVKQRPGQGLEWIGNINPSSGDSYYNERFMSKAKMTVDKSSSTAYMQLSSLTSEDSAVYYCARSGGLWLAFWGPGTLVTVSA VL: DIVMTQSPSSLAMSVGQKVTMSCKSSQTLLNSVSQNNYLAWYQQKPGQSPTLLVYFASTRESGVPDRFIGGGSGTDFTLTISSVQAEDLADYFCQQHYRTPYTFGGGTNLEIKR
Response given: 0.05
